- method-notes: Stability in liver microsomes, dog

{"compound": "CCCCCC(CCC1C(O)CC2Cc3c(cccc3OCC(=O)O)CC21)OC(C)=O (stereo not shown) [Prodrug XLIII]", "units": "µM", "Treprostinil Concentration 120 min": 0.873}
{"compound": "CCCCCC(CCC1C(O)CC2Cc3c(cccc3OCC(=O)O)CC21)OC(=O)CC (stereo not shown) [Prodrug LV]", "units": "µM", "Treprostinil Concentration 120 min": 0.743}
{"compound": "CCCCCC(CCC1C(OC(=O)CC)CC2Cc3c(cccc3OCC(=O)O)CC21)OC(=O)CC (stereo not shown) [Prodrug LXX, treprostinil dipropionate]", "units": "µM", "Treprostinil Concentration 120 min": 1.07}
{"compound": "CCCCCC(CCC1C(O)CC2Cc3c(cccc3OCC(=O)O)CC21)OP(=O)(O)O (stereo not shown) [Prodrug VI]", "units": "µM", "Treprostinil Concentration 120 min": 0.75}

====

- method-notes: Stability in human subcutaneous skin homogenate

{"compound": "CCCCCC(CCC1C(O)CC2Cc3c(cccc3OCC(=O)O)CC21)OC(=O)CCC(=O)N1CCOCC1 (centres unmarked)", "Trep Concentration 60 min": "0 µM"}
{"compound": "CCCCCC(CCC1C(O)CC2Cc3c(cccc3OCC(=O)O)CC21)OCCC (centres unmarked)", "Trep Concentration 60 min": "0 µM"}
{"compound": "CCCCCC(CCC1C(O)CC2Cc3c(cccc3OCC(=O)O)CC21)OC(=O)OCCOC (centres unmarked)", "Trep Concentration 60 min": "0.329 µM"}
{"compound": "CCCCCC(CCC1C(OC(=O)CC)CC2Cc3c(cccc3OCC(=O)O)CC21)OC(=O)CC (centres unmarked) [Prodrug LXX, treprostinil dipropionate]", "Trep Concentration 60 min": "0.0411 µM"}
{"compound": "CCCCCC(CCC1C(O)CC2Cc3c(cccc3OCC(=O)O)CC21)OC(=O)OC(C)C (centres unmarked)", "Trep Concentration 60 min": "0.12 µM"}
{"compound": "CCCCCC(CCC1C(O)CC2Cc3c(cccc3OCC(=O)O)CC21)OC (centres unmarked)", "Trep Concentration 60 min": "0 µM"}
{"compound": "CCCCCC(CCC1C(O)CC2Cc3c(cccc3OCC(=O)O)CC21)OC(N)=O (centres unmarked)", "Trep Concentration 60 min": "0 µM"}
{"compound": "CCCCCC(CCC1C(O)CC2Cc3c(cccc3OCC(=O)O)CC21)OC(=O)CC (centres unmarked)", "Trep Concentration 60 min": "0.741 µM"}

====

- method-notes: Stability in liver microsomes, dog
Assign class by Trep Concentration 0 min: not lower than 0.1 µM means Y; lower than 0.1 µM means N.

{"molecule": "CCCCC[C@H]1CC[C@@H]2[C@H]3Cc4cccc(OCC(=O)O)c4C[C@H]3C[C@H]2OC(=O)O1 [XXIV]", "cat": "Y"}
{"molecule": "CCCCCC(CCC1C(O)CC2Cc3c(cccc3OCC(=O)O)CC21)OCOC(=O)C(C)(C)C (stereo not shown) [LII]", "cat": "Y"}
{"molecule": "CCCCCC(CCC1C(O)CC2Cc3c(cccc3OCC(=O)O)CC21)OC(=O)C(N)CCCCN (stereo not shown) [XXXV]", "cat": "N"}
{"molecule": "CCCCCC(CCC1C(O)CC2Cc3c(cccc3OCC(=O)O)CC21)OC(=O)N1CCC(O)CC1 (stereo not shown) [LVIII]", "cat": "N"}
{"molecule": "CCCCCC(CCC1C(O)CC2Cc3c(cccc3OCC(=O)O)CC21)OC(=O)CCC(=O)O (stereo not shown) [XX]", "cat": "N"}
{"molecule": "CCCCCC(CCC1C(O)CC2Cc3c(cccc3OCC(=O)O)CC21)OCC (stereo not shown) [XLVII]", "cat": "N"}
{"molecule": "CCCCCC(CCC1C(O)CC2Cc3c(cccc3OCC(=O)O)CC21)OCCC (stereo not shown) [XLVI]", "cat": "N"}
{"molecule": "CCCCCC(CCC1C(O)CC2Cc3c(cccc3OCC(=O)O)CC21)OC(=O)CO (stereo not shown) [XLIV]", "cat": "Y"}
{"molecule": "CCCCCC(O)CCC1C(OC)CC2Cc3c(cccc3OCC(=O)O)CC21 (stereo not shown) [LIII]", "cat": "N"}

====

- method-notes: Stability in cryopreserved hepatocytes, human

{"compound": "CCCCCC(CCC1C(O)CC2Cc3c(cccc3OCC(=O)O)CC21)OC(=O)CCC(=O)O (centres unmarked)", "units": "µM", "Trep Concentration (μM) 15 min": 0.1}
{"compound": "CCCCCC(CCC1C(O)CC2Cc3c(cccc3OCC(=O)O)CC21)OC(=O)c1ccccc1O (centres unmarked)", "units": "µM", "Trep Concentration (μM) 15 min": 0.0213}
{"compound": "CCCCCC(CCC1C(O)CC2Cc3c(cccc3OCC(=O)O)CC21)OC (centres unmarked)", "units": "µM", "Trep Concentration (μM) 15 min": 0.0417}
{"compound": "CCCCC[C@H]1CC[C@@H]2[C@H]3Cc4cccc(OCC(=O)O)c4C[C@H]3C[C@H]2OC(=O)O1", "units": "µM", "Trep Concentration (μM) 15 min": 0.228}
{"compound": "CCCCCC(CCC1C(O)CC2Cc3c(cccc3OCC(=O)O)CC21)OC(N)=O (centres unmarked)", "units": "µM", "Trep Concentration (μM) 15 min": 0.274}

====

- method-notes: Stability in liver microsomes, rat
Entries annotated with measured Trep Concentration 20 min
property: Trep Concentration 20 min (µM)

{"molecule": "CCCCCC(CCC1C(O)CC2Cc3c(cccc3OCC(=O)O)CC21)OC(=O)NCC(=O)O (stereo not drawn)", "property": "Trep Concentration 20 min", "obs-value": 0}
{"molecule": "CCCCCC(O)CCC1C(OC)CC2Cc3c(cccc3OCC(=O)O)CC21 (stereo not drawn)", "property": "Trep Concentration 20 min", "obs-value": 0.024}
{"molecule": "CCCCCC(CCC1C(O)CC2Cc3c(cccc3OCC(=O)O)CC21)OC(=O)CN (stereo not drawn)", "property": "Trep Concentration 20 min", "obs-value": 0.0901}
{"molecule": "CCCCCC(CCC1C(O)CC2Cc3c(cccc3OCC(=O)O)CC21)OC(=O)c1ccccc1O (stereo not drawn)", "property": "Trep Concentration 20 min", "obs-value": 0.00316}
{"molecule": "CCCCCC(CCC1C(O)CC2Cc3c(cccc3OCC(=O)O)CC21)OC(=O)COc1ccc(O)cc1 (stereo not drawn)", "property": "Trep Concentration 20 min", "obs-value": 0.765}
{"molecule": "CCCCCC(CCC1C(O)CC2Cc3c(cccc3OCC(=O)O)CC21)OC(=O)N1CCC(O)CC1 (stereo not drawn)", "property": "Trep Concentration 20 min", "obs-value": 0}
{"molecule": "CCCCCC(CCC1C(O)CC2Cc3c(cccc3OCC(=O)O)CC21)OCC (stereo not drawn)", "property": "Trep Concentration 20 min", "obs-value": 0.0421}
{"molecule": "CCCCCC(CCC1C(O)CC2Cc3c(cccc3OCC(=O)O)CC21)OC(=O)C(C)(C)C (stereo not drawn)", "property": "Trep Concentration 20 min", "obs-value": 0.00637}
{"molecule": "CCCCCC(CCC1C(O)CC2Cc3c(cccc3OCC(=O)O)CC21)OC(=O)CCC(=O)O (stereo not drawn)", "property": "Trep Concentration 20 min", "obs-value": 0.29}
{"molecule": "CCCCCC(CCC1C(O)CC2Cc3c(cccc3OCC(=O)O)CC21)OC(=O)c1ccc(O)c(O)c1 (stereo not drawn)", "property": "Trep Concentration 20 min", "obs-value": 0.00368}
{"molecule": "CCCCCC(CCC1C(O)CC2Cc3c(cccc3OCC(=O)O)CC21)OC(=O)OC(C)C (stereo not drawn)", "property": "Trep Concentration 20 min", "obs-value": 0.48}
{"molecule": "CCCCCC(CCC1C(O)CC2Cc3c(cccc3OCC(=O)O)CC21)OCCN1CCOCC1 (stereo not drawn)", "property": "Trep Concentration 20 min", "obs-value": 0.00419}
{"molecule": "CCCCCC1CCC2C(CC3Cc4c(cccc4OCC(=O)O)CC32)OP(=O)(Oc2ccccc2)O1 (mixture of isomers)", "property": "Trep Concentration 20 min", "obs-value": 0}
{"molecule": "CCCCCC(CCC1C(O)CC2Cc3c(cccc3OCC(=O)O)CC21)OC(=O)C12CC3CC(CC(C3)C1)C2 (stereo not drawn)", "property": "Trep Concentration 20 min", "obs-value": 0.0421}
{"molecule": "CCCCCC(CCC1C(O)CC2Cc3c(cccc3OCC(=O)O)CC21)OCC(=O)O (stereo not drawn)", "property": "Trep Concentration 20 min", "obs-value": 0}
{"molecule": "CCCCCC(CCC1C(O)CC2Cc3c(cccc3OCC(=O)O)CC21)OC(=O)c1ccc(O)cc1 (stereo not drawn)", "property": "Trep Concentration 20 min", "obs-value": 0.0105}
{"molecule": "CCCCC[C@H]1CC[C@@H]2[C@H]3Cc4cccc(OCC(=O)O)c4C[C@H]3C[C@H]2OC(=O)O1", "property": "Trep Concentration 20 min", "obs-value": 0.79}
{"molecule": "CCCCCC(CCC1C(O)CC2Cc3c(cccc3OCC(=O)O)CC21)OC(=O)N1CCCCC1 (stereo not drawn)", "property": "Trep Concentration 20 min", "obs-value": 0}
{"molecule": "CCCCCC(CCC1C(O)CC2Cc3c(cccc3OCC(=O)O)CC21)OC(=O)c1ccc(OC(F)(F)F)cc1 (stereo not drawn)", "property": "Trep Concentration 20 min", "obs-value": 0.0653}
{"molecule": "CCCCCC(CCC1C(O)CC2Cc3c(cccc3OCC(=O)O)CC21)OC(=O)COc1ccccc1 (stereo not drawn)", "property": "Trep Concentration 20 min", "obs-value": 0.885}
{"molecule": "CCCCCC(CCC1C(O)CC2Cc3c(cccc3OCC(=O)O)CC21)OC(=O)c1ccc(C)cc1 (stereo not drawn)", "property": "Trep Concentration 20 min", "obs-value": 0.0864}
{"molecule": "CCCCCC(CCC1C(O)CC2Cc3c(cccc3OCC(=O)O)CC21)OC(=O)C(C)C (stereo not drawn)", "property": "Trep Concentration 20 min", "obs-value": 0.419}
{"molecule": "CCCCCC(CCC1C(O)CC2Cc3c(cccc3OCC(=O)O)CC21)OC(N)=O (stereo not drawn)", "property": "Trep Concentration 20 min", "obs-value": 0.314}
{"molecule": "CCCCCC(CCC1C(O)CC2Cc3c(cccc3OCC(=O)O)CC21)OC(C)=O (stereo not drawn)", "property": "Trep Concentration 20 min", "obs-value": 0.111}
{"molecule": "CCCCCC(CCC1C(O)CC2Cc3c(cccc3OCC(=O)O)CC21)OC(=O)c1ccc(C(F)(F)F)cc1 (stereo not drawn)", "property": "Trep Concentration 20 min", "obs-value": 0.124}
{"molecule": "CCCCCC(CCC1C(O)CC2Cc3c(cccc3OCC(=O)O)CC21)OC(=O)C(N)CCCCN (stereo not drawn)", "property": "Trep Concentration 20 min", "obs-value": 0.0389}
{"molecule": "CCCCCC(CCC1C(O)CC2Cc3c(cccc3OCC(=O)O)CC21)OC(=O)c1cccc(O)c1 (stereo not drawn)", "property": "Trep Concentration 20 min", "obs-value": 0.0396}
